target: Phosphatidylinositol 4,5-bisphosphate 3-kinase catalytic subunit alpha isoform (Homo sapiens); assay: Inhibition of PI3Kalpha (unknown origin) using PIP2 as substrate after 2 hrs by luminescence assay
Sequence (P42336 whole entry, canonical isoform): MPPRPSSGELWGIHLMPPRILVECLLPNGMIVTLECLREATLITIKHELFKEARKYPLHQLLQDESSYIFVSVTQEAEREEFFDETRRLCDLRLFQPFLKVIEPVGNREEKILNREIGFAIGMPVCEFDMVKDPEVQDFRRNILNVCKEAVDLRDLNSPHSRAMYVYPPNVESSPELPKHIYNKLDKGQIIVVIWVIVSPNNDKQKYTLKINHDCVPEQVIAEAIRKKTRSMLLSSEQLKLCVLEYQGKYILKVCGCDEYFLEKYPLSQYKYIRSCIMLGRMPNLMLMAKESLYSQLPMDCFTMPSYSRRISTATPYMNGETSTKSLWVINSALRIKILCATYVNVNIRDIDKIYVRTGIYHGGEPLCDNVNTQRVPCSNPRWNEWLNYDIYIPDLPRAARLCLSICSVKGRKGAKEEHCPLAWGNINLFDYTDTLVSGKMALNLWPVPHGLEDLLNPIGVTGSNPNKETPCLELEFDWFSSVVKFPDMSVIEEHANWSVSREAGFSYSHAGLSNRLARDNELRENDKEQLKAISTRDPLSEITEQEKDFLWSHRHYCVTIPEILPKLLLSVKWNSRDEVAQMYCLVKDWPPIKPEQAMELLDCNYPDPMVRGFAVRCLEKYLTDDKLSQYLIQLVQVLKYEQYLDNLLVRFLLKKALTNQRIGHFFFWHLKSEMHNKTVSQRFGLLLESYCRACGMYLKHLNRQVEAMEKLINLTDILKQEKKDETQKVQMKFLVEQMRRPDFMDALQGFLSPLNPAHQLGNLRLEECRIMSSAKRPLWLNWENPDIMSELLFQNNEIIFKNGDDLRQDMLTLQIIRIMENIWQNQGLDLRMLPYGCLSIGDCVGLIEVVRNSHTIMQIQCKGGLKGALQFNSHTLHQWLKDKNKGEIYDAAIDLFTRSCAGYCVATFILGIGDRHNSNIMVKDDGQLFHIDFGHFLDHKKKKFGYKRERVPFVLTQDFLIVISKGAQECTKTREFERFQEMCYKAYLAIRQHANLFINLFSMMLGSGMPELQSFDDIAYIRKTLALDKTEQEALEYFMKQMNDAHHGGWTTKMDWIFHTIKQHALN
observation_type: IC50

Below, 2 molecules whose answers are already recorded.
substance_smiles | IC50
O=C(c1ccc(C(=O)C(F)(F)F)cc1)N1CCOc2ccccc2C1 | > 10 µM
Cc1cc(S(C)(=O)=O)ccc1C(=O)N1CCOc2ccc(-c3ccc4nc[nH]c4c3)cc2C1 | > 3 µM

The measured IC50 associated with CCCc1cc(S(C)(=O)=O)ccc1C(=O)N1CCOc2ccc(-c3ccc4nc[nH]c4c3)cc2C1 reads > 3 µM

The measured IC50 associated with CCc1c(C(=O)N2CCOc3ccc(-c4ccc5nc[nH]c5c4)cc3C2)ccc(S(C)(=O)=O)c1F reads > 3 µM
